ASSAY_METHOD_TEXT: Short term HFD mouse model: plasma and liver exposure
Assay type: in vivo, mice (C57BL/6J)
CONDITION_LABEL: HFD mice, three oral doses of 10 mg/kg, 4 h after last dose
READOUT_NAME: liver/plasma ratio 4 h

[[record]]
compound = "N#Cc1cccc(C#N)c1-c1c(-c2cccc(-c3ccc(C(=O)O)cc3Cl)c2)n(S(=O)(=O)C2CCC(F)(F)CC2)c2ccc(F)cc12 [11/63]"
recorded_measurement = "B (5 to ≤30)"

[[record]]
compound = "CS(=O)(=O)NC(=O)c1ccc(-c2cccc(-c3c(-c4c(C#N)cccc4C#N)c4cc(F)ccc4n3S(=O)(=O)c3ccc(C(F)F)cc3)c2)c(Cl)c1 [32/5]"
recorded_measurement = "B (5 to ≤30)"

[[record]]
compound = "N#Cc1cccc(C#N)c1-c1c(-c2cccc(-c3ccc(C(=O)O)cc3F)c2)n(S(=O)(=O)c2ccc(C(F)F)cc2)c2ccc(F)cc12 [11/51]"
recorded_measurement = "C (30 to ≤100)"

[[record]]
compound = "CC(=O)NS(=O)(=O)c1ccc(-c2cccc(-c3c(-c4c(C#N)cccc4C#N)c4cc(F)ccc4n3S(=O)(=O)c3ccc(C(F)F)cc3)c2)c(Cl)c1 [8/8]"
recorded_measurement = "B (5 to ≤30)"

[[record]]
compound = "N#Cc1cccc(C#N)c1-c1c(-c2cccc(-c3c(F)cc(CC(=O)O)cc3F)c2)n(S(=O)(=O)c2ccc(C(F)F)cc2)c2ccc(F)cc12 [3/73]"
recorded_measurement = "C (30 to ≤100)"


Req: Return reported liver/plasma ratio 4 h. Input compound: N#Cc1cccc(C#N)c1-c1c(-c2cccc(-c3c(F)cc(C(=O)O)cc3F)c2)n(S(=O)(=O)c2ccc(C(F)F)cc2)c2ccc(F)cc12 [11/53]
Resp: C (30 to ≤100)

---

MEASURED_TARGET: ligand-binding domain (LBD) of LXRβ (Homo sapiens, UniProt P55055, DUP175-175)
Construct: LXRβ (amino acids 156-461); expressed in transfected cells; host or cells: HEK293
Sequence (P55055 with tags, fused parts or gaps DUP175-175 limits assumed): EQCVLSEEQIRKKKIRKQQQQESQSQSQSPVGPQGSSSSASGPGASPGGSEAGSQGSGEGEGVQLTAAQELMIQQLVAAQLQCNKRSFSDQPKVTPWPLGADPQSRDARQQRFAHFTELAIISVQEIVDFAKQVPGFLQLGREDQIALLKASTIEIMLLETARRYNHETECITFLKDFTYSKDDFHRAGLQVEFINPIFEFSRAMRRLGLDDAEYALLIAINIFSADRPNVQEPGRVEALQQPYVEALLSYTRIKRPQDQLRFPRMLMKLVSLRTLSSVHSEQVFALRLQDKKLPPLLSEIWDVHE
ASSAY_METHOD_TEXT: LXR Gal4 reporter transient transfection assay (LBD-M2H Gal4β)
Type: cell-based
CONDITION_LABEL: HEK293 cells, LXRβ LBD; read-out: LBD-M2H Gal4β (EC50 range)
Task for the reader: assign each of the following compounds its reported EC50.

Req: For CS(=O)(=O)NC(=O)C1CC1c1cccc(-c2c(-c3ccsc3C#N)c3ccccc3n2S(=O)(=O)c2ccc(Cl)cc2)c1 (stereo not shown) , write its EC50.
Resp: < 100 nM

Req: State its EC50: `COc1ccc(S(=O)(=O)n2c(-c3ccccc3)c(-c3cc4ccccc4nc3C#N)c3ccccc32)cc1`
Resp: 100 to 1000 nM

Req: Give the reported value of EC50 for this record: `N#Cc1sccc1-c1c(-c2cccc(CCCC(=O)O)c2)n(S(=O)(=O)c2ccc(Cl)cc2)c2ccccc12`
Resp: < 100 nM

Req: Provide measured EC50 value, entry: `N#Cc1cc(F)ccc1-c1c(-c2cccs2)n(S(=O)(=O)c2ccc(Cl)cc2)c2ccccc12`
Resp: < 100 nM

Req: Please give measured EC50 of the following entry: `Cc1ccc(S(=O)(=O)n2c(-c3cccc(/C=C/C(=O)O)c3)c(-c3ccsc3C#N)c3ccccc32)cc1`
Resp: < 100 nM

Req: Answer with the recorded EC50 of `Cc1cc(C)c(S(=O)(=O)n2c(-c3cccs3)c(-c3ccsc3C#N)c3ccccc32)c(C)c1` only.
Resp: < 100 nM

Req: Provide one value: measured EC50 of `N#Cc1nccnc1-c1c(-c2cccs2)n(S(=O)(=O)c2ccc(Cl)cc2)c2ccccc12`
Resp: < 100 nM

Req: Give the value of EC50 reported for the following: N#Cc1sccc1-c1c(-c2cccc(N3CCC(C(=O)O)C3)c2)n(S(=O)(=O)c2ccc(Cl)cc2)c2ccccc12 (stereo not shown)
Resp: < 100 nM

Req: Fill in reported EC50 for this entry: `COc1ccc(S(=O)(=O)n2c(-c3ccccc3)c(-c3ccsc3C)c3ccccc32)cc1`
Resp: < 100 nM

Req: Identify measured EC50 associated with `Cc1ccc(S(=O)(=O)n2c(-c3ccc(CC(C)(C)C(=O)O)s3)c(-c3ccsc3C#N)c3ccccc32)cc1`
Resp: 100 to 1000 nM

Req: Tell me its EC50 given `N#Cc1sccc1-c1c(-c2cccc(N3CC(C(=O)O)C3)c2)n(S(=O)(=O)c2ccccc2)c2ccc(F)cc12` as the entry.
Resp: < 100 nM

Req: // Input: `COc1ccc(S(=O)(=O)n2c(-c3cccs3)c(-c3ccsc3C#N)c3ccccc32)cc1` . Output its EC50 only.
Resp: < 100 nM

Req: Assign EC50 to the following record: `N#Cc1sccc1-c1c(-c2cccs2)n(S(=O)(=O)c2ccc(F)cc2)c2ccccc12`
Resp: < 100 nM

Req: Specify reported EC50 for the compound shown: `COc1ccc(S(=O)(=O)n2c(-c3ccccc3)c(C3=C(C#N)CCCC3)c3ccccc32)cc1`
Resp: 100 to 1000 nM

Req: Return reported EC50. Input compound: `N#Cc1sccc1-c1c(-c2cccs2)n(S(=O)(=O)c2ccc(Cl)cc2)c2ccc(O)cc12`
Resp: < 100 nM

Req: Consider the compound `Cc1ccc(S(=O)(=O)n2c(-c3cccc(-c4cccc(C(=O)NS(C)(=O)=O)c4)c3)c(-c3ccsc3C#N)c3ccccc32)cc1` . State its measured EC50.
Resp: 100 to 1000 nM

---

MEASURED_TARGET: full length (FL) LXRα (Homo sapiens, UniProt Q13133)
Construct: the full length (FL) proteins of LXRα (amino acids 1-447); NP005684; expressed in transfected cells; host or cells: HEK293
Sequence (Q13133 1-447): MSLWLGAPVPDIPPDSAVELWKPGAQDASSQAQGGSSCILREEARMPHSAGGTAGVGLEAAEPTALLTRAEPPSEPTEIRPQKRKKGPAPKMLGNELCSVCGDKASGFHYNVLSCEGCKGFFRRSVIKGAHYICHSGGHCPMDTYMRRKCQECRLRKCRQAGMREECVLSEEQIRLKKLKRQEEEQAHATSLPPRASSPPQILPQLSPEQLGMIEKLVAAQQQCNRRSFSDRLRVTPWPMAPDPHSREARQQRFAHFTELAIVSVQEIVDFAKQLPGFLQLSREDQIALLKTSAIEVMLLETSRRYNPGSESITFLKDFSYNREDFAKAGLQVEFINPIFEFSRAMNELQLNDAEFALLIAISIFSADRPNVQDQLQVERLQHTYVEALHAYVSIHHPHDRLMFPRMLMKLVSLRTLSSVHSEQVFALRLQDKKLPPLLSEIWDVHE
ASSAY_METHOD_TEXT: LXR Gal4 reporter transient transfection assay (FL-M2H Gal4α)
Assay type: cell-based
CONDITION_LABEL: HEK293 cells, full length LXRα; read-out: FL-M2H Gal4α (EC50 range)
READOUT_NAME: EC50

Req: Look up and report measured EC50 for this entry: `[2H]c1c([2H])c(S(=O)(=O)n2c(-c3cccc(-c4ccc(C(=O)O)cc4Cl)c3)c(-c3ccsc3C#N)c3cc(F)ccc32)c([2H])c([2H])c1C([2H])([2H])[2H]`
Resp: < 100 nM

Req: Assign EC50 to the following record: `Cc1ccc(S(=O)(=O)n2c(-c3cccc(-c4ccc(C(=O)O)cc4)c3)c(-c3ccsc3C#N)c3cc(F)ccc32)cc1C`
Resp: < 100 nM

Req: // Input: `Cc1ccc(S(=O)(=O)n2c(-c3cccc(N4CC(C(=O)O)C4)c3)c(-c3ccsc3C#N)c3cc(Cl)ccc32)cc1` . Output its EC50 only.
Resp: < 100 nM

Req: Give the reported value of EC50 for this record: `N#Cc1sccc1-c1c(-c2cccc(-c3cc(F)c(C(=O)O)cc3Cl)c2)n(S(=O)(=O)c2ccc(C(F)F)cc2)c2ccc(F)cc12`
Resp: < 100 nM

Req: Return EC50 (reported value) for this molecule: `Cc1ccc(S(=O)(=O)n2c(-c3cccc(N4CC(C(=O)O)C4)c3)c(-c3ccoc3C#N)c3cc(F)ccc32)cc1`
Resp: 100 to 1000 nM

Req: Please list EC50 recorded for the molecule `Cc1ccc(S(=O)(=O)n2c(-c3cccc(C#CC(C)(C)C(=O)O)c3)c(-c3ccsc3C#N)c3cc(F)ccc32)cc1`
Resp: 100 to 1000 nM

Req: Assign EC50 to the following record: `N#Cc1cccc(C#N)c1-c1c(-c2cccc(-c3cc(F)c(C(=O)O)cc3Cl)c2)n(S(=O)(=O)c2ccc(C(F)F)cc2)c2ccc(F)cc12`
Resp: < 100 nM

Req: For the molecule Cc1ccc(S(=O)(=O)n2c(-c3cccc(C4CC4C(=O)O)c3)c(-c3ccsc3C#N)c3ccncc32)cc1 (stereo not shown) , give its reported EC50.
Resp: 100 to 1000 nM

Req: Answer with the recorded EC50 for the molecule listed here: `Cc1ccc(S(=O)(=O)n2c(-c3cccc(N4CC(C(=O)O)C4)c3)c(-c3sccc3C#N)c3cc(F)ccc32)cc1`
Resp: 100 to 1000 nM

Req: In one line, give reported EC50 of the entry `N#Cc1nccnc1-c1c(-c2cccc(-c3cc(F)c(C(=O)O)cc3Cl)c2)n(S(=O)(=O)c2ccc(C(F)F)cc2)c2ccc(F)cc12` .
Resp: < 100 nM

Req: Supply recorded EC50 for Cc1ccc(S(=O)(=O)n2c(-c3cccc([C@@H]4C[C@H]4C(=O)O)c3)c(-c3ccsc3C#N)c3ncccc32)cc1 (relative stereo) here.
Resp: < 100 nM

Req: Supply EC50 value. Item: `Cc1ccc(S(=O)(=O)n2c(-c3cccc(N4CC(C(=O)O)C4)c3)c(-c3ccsc3CCO)c3cc(F)ccc32)cc1`
Resp: 100 to 1000 nM

Req: Retrieve EC50 measured for `Cc1ccc(S(=O)(=O)n2c(-c3cccc(-c4ccc(C(=O)O)cc4Cl)c3)c(-c3ccsc3C#N)c3cc(F)ccc32)cc1F` and print it.
Resp: < 100 nM
